Every entry's value here was drawn from patent US11034672B1.

# target: EGFR V3 (Homo sapiens, UniProt P00533, DELINS30-297G)
# Construct: expressed in transfected cells; host or cells: BaF3 (murine pro-B), retroviral pMXs-IRES-Blasticidin
# Sequence (P00533 with tags, fused parts or gaps DELINS30-297G): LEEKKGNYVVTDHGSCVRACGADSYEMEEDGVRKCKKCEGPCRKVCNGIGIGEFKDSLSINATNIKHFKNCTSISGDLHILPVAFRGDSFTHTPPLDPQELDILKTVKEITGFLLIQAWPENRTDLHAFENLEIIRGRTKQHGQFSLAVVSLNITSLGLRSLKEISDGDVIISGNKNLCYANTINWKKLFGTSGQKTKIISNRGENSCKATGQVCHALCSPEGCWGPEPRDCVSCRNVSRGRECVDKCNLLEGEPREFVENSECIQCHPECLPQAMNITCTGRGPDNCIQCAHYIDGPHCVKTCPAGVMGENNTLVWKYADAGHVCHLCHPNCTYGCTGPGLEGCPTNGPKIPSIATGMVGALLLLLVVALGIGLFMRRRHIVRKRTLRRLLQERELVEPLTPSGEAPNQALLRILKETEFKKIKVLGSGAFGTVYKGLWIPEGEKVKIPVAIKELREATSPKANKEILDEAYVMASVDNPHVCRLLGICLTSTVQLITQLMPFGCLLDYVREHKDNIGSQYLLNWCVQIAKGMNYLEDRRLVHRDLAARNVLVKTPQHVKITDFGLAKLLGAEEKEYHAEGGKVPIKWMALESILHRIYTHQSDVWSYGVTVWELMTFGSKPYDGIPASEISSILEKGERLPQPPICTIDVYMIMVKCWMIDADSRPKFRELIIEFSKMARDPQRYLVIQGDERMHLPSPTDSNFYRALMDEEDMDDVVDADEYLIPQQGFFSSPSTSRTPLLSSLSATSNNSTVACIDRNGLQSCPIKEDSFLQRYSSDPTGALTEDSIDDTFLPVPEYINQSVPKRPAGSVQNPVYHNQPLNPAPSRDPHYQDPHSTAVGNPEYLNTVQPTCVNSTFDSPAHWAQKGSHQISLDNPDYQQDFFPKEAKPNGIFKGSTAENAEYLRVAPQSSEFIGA
# experimental-details: Activity for inhibiting EGFR (Table A), EGFR V3 (EGFR-Viii)
# Format: cell-based
# experimental-conditions: read-out: EGFR V3, potency code (IC50)
Reported IC50 is given for each of the following molecules.

- molecule: "C=CC(=O)Nc1cc2c(Nc3ccc(OCc4ccccn4)c(Cl)c3)ncnc2cc1OCC1CN(C)C1"
  target: "EGFR V3 (Homo sapiens, UniProt P00533, DELINS30-297G)"
  IC50: "30 to 50 nM"
- molecule: "C=CC(=O)Nc1cc2c(Nc3ccc(OCc4ccccn4)c(Cl)c3)ncnc2cc1OCC1(N(C)C)CC1"
  target: "EGFR V3 (Homo sapiens, UniProt P00533, DELINS30-297G)"
  IC50: "10 to 20 nM"
- molecule: "C=CC(=O)Nc1cc2c(Nc3ccc(OCc4ccccn4)c(Cl)c3)ncnc2cc1N1CCN2CCC1C2 (stereo not shown)"
  target: "EGFR V3 (Homo sapiens, UniProt P00533, DELINS30-297G)"
  IC50: "100 to 200 nM"
- molecule: "C=CC(=O)Nc1cc2c(Nc3ccc(OCc4cccnn4)c(Cl)c3)ncnc2cc1OCCN1CC2CCC(C1)O2"
  target: "EGFR V3 (Homo sapiens, UniProt P00533, DELINS30-297G)"
  IC50: "50 to 100 nM"
